Tested on: P388 leukemia ip, CD2F1 mice, survival T/C
experimental.protocol: NCI In Vivo Anticancer Drug Screen. Data for tumor model P388 Leukemia (intraperitoneal) in CD2F1 (CDF1) mice
condition.info: endpoint: median survival time; dose: 200.0 mg/kg/injection; schedule: Q01DX009 (ip); vehicle: saline with Tween-80
Toxic doses and inconclusive results are not listed. The calls were made as follows: active = survival T/C of 150% or more; inactive = T/C below 125% in these data.
# valid calls are 1.0 (active), 0.0 (inactive); nothing else

// known answers, use as guide
O=c1[nH]c2c(ccc3c[n+]([O-])ccc32)c2c1CCC2 | 0.0
CN(C)c1ccc(C=C2c3ccccc3C(=O)c3ccccc32)c(Cl)c1 | 0.0
CSc1cccc(NC(=O)OCCOc2ccccc2Cl)c1 | 0.0
BrC1CC(Br)c2c1c1c(c3c2C(Br)CC3Br)C(Br)CC1Br (centres undefined) | 1.0

Query string: Tell me the recorded outcome of this test for COC(=O)C(=O)c1ccccc1 .
Result string: 0.0

Query string: Would you kindly repeat that for O=C(Nc1ccccc1)Oc1ccc(/C=N/Sc2cccc([N+](=O)[O-])c2)cc1 ?
Result string: 0.0

Query string: Request: Cc1cc(C)c(S(=O)(=O)NN)c(C)c1
Result string: 0.0

----------
Entries and their T/C
Tested on: P388 leukemia ip, CD2F1 mice, survival T/C
experimental.protocol: NCI In Vivo Anticancer Drug Screen. Data for tumor model P388 Leukemia (intraperitoneal) in CD2F1 (CDF1) mice
condition.info: endpoint: median survival time; dose: 120.0 mg/kg/injection; schedule: Q01DX005 (ip); vehicle: saline with Tween-80; higher = longer survival
Inconclusive results and toxic doses are left out. Numbered stars: 1 amine (or outer) side, 2 acyl side, 3 side chain; on linkers, the order of the positions; unused ones are H or OH. Square brackets hold non-standard residues; d marks the D form. Peptide text beside a SMILES is read from it. X21 = O=C(C1=CN(Cc2ccccc2)C=CC1N[*:1])[*:2]

N#Cc1c(-c2ccc(Cl)cc2)cn2c1[nH]c(=O)c1c3c(sc12)CCCC3 | 86 % of control
COc1ccc(N2C(=O)C(C)SC23C(=O)Nc2ccccc23)cc1 (stereo not given) | 100 % of control
N=C(N)c1ccc(OCCCCOc2ccc(N)cc2Cl)cc1 | 105 % of control
CCCCCCCC(=O)NCCCC(C)Nc1cc(OC)cc2cccnc12 (stereo not given) | 99 % of control
Cn1c(Cl)cc2nc3ccccc3n2c1=O | 94 % of control
O=C1CSC(c2cccc(Br)c2)N1c1nncs1 (stereo not given) | 97 % of control

Query string: T/C lookup needed for CC(C)c1cccc(C(C)C)c1NC(=O)OC1CCCCC1C (stereo not given) , thanks.
Result string: 90 % of control

Query string: Next entry: COC1=CCC(CCNC(=O)c2cc3c(cc2[N+](=O)[O-])OCO3)=CC1
Result string: 93 % of control

Query string: What do you get for CSc1nc(NC2OC(CO)C(O)C(O)C2O)c(Cl)c(=O)n1C (stereo not given) ?
Result string: 100 % of control

Query string: Likewise for COC(=O)C1=C(C)NC(C)=C(C(=O)OC)C1c1ccc(NC(C)=O)cc1 ?
Result string: 111 % of control

Query string: For CCOc1ccc(C(CC)c2cc3c(cc2OCC)OCO3)cc1 (stereo not given) then?
Result string: 111 % of control

Query string: Then what about the compound OCCN(CO)CCO ?
Result string: 123 % of control

Query string: Can you check NC(=S)N/N=C1/CCCC/C1=N/O next?
Result string: 100 % of control

Query string: Then O=C1C2C(C(=O)N1c1ccccc1)C1(c3cccnc3)NC(=O)C2(Cc2cccnc2)c2ccccc21 (stereo not given) ?
Result string: 88 % of control

Query string: Item: O=C(CNC(=O)c1ccccc1)N/N=C/c1ccccc1O
Result string: 101 % of control

Query string: Another: Cc1ccc2c(c1)C1(SCC(=O)N1c1ccc(Cl)cc1)C(=O)N2 (stereo not given)
Result string: 100 % of control

Query string: Subsequent entry: Cc1nn(-c2ccccc2)nc1C(=O)Nc1ccc2[nH]ncc2c1
Result string: 94 % of control

Query string: One more compound: O=C(Nc1cccc(S(=O)(=O)F)c1)Oc1ccc([N+](=O)[O-])cc1
Result string: 111 % of control

Query string: Let us now turn to O=C1OC(c2ccc(F)cc2)CC1CN1CCOCC1 (stereo not given)
Result string: 105 % of control

Query string: Another compound to look at: CC12CC3CC(C)(C1)CC(SCCN)(C3)C2
Result string: 100 % of control

Query string: Then what about the compound CC1NC(=O)C(C(C)C)NC(=O)C2=CN(Cc3ccccc3)C=CC2NC(=O)C(C)NC(=O)C(C(C)C)NC(=O)C2=CN(Cc3ccccc3)C=CC2NC1=O (stereo not given) (cyclo([X21]VA[X21]VA); configuration not given here) ?
Result string: 93 % of control
